The measured values listed here are drawn from the RNAGym collection of RNA variant scans (doi:10.1073/pnas.2313332121).

Catalogue of variants with associated polymerase ribozyme fitness (log ratio)
B1: TPR 5TU (parent)
chain: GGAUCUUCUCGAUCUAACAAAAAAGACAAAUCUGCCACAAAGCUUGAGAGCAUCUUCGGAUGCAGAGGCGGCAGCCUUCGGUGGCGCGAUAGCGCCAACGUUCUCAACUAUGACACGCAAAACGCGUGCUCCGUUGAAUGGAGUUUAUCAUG

Variants of: B1
Assay overview: polymerase ribozyme fitness, log enrichment relative to wild type (log ratio); higher = more active; in vitro selection for triplet polymerase activity
Fewer inactive variants are shown than the library holds.
Assay endpoint: polymerase ribozyme fitness (log ratio)

C93U G94U    -1.43
C116U U130C    1.13
C5G A23C C72U G88U C132G U135G U148G    -3.99
C57G G143C    -1.72
C99A A115U A120G    -2.43
U53G C87U A120C    -2.07
A21G G143A    -0.569
G48U C118G    -0.339
A28C A30G C93U C103U    -4.06
A12U G46C C69U    -3.08
A3U A52C G86U A119U G141U    -3.78
U4G U7G A20U C57U A91U C123U A150U    -3
C57U C85A G133C G136A    -1.86
A37G C93A U145G    -3.99
C85A A150G    -2.41
